SYSTEM_TESTED: T1, CTLA4 on the cells of the reporter gene bioassay (human, UniProt P16410 36-223)
T1 sequence (looked up): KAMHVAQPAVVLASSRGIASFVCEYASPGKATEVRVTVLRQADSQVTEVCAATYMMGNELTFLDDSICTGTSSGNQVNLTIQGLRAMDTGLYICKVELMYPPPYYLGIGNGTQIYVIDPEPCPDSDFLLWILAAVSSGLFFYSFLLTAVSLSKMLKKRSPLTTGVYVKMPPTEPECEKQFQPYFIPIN
PROTOCOL_NOTES: cell-based or functional assay
PROPERTY_MEASURED: Relative Potency (%)

1) Tremelimumab incubated in PBS at 37° C., week 2 (antibody, human IgG2, kappa, V domains shown, Asn-30 deamidated in 18.5% (peptide mapping)) VH: QVQLVESGGGVVQPGRSLRLSCAASGFTFSSYGMHWVRQAPGKGLEWVAVIWYDGSNKYYADSVKGRFTISRDNSKNTLYLQMNSLRAEDTAVYYCARDPRGATLYYYYYGMDVWGQGTTVTVSS VL: DIQMTQSPSSLSASVGDRVTITCRASQSINSYLDWYQQKPGKAPKLLIYAASSLQSGVPSRFSGSGSGTDFTLTISSLQPEDFATYYCQQYYSTPFTFGPGTKVEIKR :: 83
2) Tremelimumab incubated in PBS at 37° C., week 1 (antibody, human IgG2, kappa, V domains shown, Asn-30 deamidated in 8.8% (peptide mapping)) VH: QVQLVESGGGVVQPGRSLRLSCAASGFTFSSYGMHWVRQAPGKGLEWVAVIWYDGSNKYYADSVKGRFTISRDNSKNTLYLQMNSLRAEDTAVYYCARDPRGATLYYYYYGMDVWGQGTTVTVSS VL: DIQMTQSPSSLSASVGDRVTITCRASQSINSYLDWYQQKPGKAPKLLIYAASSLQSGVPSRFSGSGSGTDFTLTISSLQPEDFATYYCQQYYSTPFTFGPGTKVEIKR :: 96
3) Tremelimumab incubated in human serum at 37° C., week 3 (antibody, human IgG2, kappa, V domains shown, Asn-30 deamidated in 33.9% (peptide mapping)) VH: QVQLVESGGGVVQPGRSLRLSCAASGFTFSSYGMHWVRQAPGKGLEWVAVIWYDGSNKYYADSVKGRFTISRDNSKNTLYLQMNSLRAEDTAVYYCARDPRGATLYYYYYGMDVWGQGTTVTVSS VL: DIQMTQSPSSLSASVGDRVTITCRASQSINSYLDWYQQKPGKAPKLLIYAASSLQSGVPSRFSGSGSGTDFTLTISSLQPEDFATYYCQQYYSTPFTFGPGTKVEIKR :: 82
